src = patent US20240190849A1

System: FGFR3 (Homo sapiens)
Construct: made in house; host or cells: E. coli derived from BL21, infected with T7 phage
Sequence (P22607 23-806): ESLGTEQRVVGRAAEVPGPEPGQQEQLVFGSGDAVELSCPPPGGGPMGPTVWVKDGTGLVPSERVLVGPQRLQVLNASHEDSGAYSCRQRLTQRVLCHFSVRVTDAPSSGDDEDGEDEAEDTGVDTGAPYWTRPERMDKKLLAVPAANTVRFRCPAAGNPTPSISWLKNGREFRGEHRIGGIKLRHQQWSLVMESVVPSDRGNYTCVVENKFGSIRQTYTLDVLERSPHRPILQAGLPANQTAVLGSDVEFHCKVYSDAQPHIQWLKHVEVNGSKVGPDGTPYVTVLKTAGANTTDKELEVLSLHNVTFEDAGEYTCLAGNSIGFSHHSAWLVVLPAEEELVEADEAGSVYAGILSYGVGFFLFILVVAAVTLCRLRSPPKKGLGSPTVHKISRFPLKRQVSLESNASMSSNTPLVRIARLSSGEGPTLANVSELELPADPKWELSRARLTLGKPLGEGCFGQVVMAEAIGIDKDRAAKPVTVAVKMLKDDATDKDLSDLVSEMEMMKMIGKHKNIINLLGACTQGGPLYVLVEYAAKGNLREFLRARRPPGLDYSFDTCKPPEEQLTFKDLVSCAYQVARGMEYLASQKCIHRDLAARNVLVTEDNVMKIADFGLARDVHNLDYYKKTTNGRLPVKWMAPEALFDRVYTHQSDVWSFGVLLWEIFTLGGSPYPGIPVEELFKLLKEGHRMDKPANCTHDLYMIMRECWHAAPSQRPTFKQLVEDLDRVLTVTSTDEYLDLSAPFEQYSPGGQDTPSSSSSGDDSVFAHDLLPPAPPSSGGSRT
Assay remarks: Kinase binding assay (kinase-tagged T7 phage, affinity beads, qPCR readout), FGFR3
Condition notes: FGFR binding data
In this section we review reported Kd values for a set of compounds.

> print(dat)
                              smiles.record  measured.property         result
1  C=CC(=O)Nc1ccc2c(ccn2-c2nc(Nc3ccc(N4CCOCC4)cc3OCC)ncc2Cl)c1                 Kd      > 1000 nM
2  C=CC(=O)Nc1ccc2c(-c3ccnc(Nc4cn(C)nc4C)n3)cn(C)c2c1                 Kd  0.1 to 100 nM

**Query** Give the reported Kd for `C=CC(=O)Nc1ccc2c(-c3nc(Nc4cnn(CCO)c4)ncc3C)cn(C)c2c1` (system: FGFR3 (Homo sapiens)).
**Result** 0.1 to 100 nM

====

Test system: KG-1 (Acute Myeloid Leukemia), FGFR1OP2-FGFR1 fusion
Assay remarks: Cancer cell viability assay (Cell Titer-Glo), KG-1
Assay type: cell-based
Condition notes: Homo sapiens, KG-1 cells, 72 hours
Procedure: RT112/84, UM-UC-14, SNU-16 and KG-1 Cancer Cell Line Cell Viability Assays […] Cell Viability Assay Procedure: Cells were plated in 96-well clear bottom/white plates (Corning #3903) at 10,000 cells/well in 100 μl of media, incubated overnight. […] Luminescence was recorded by a Synergy H1 Microplate Reader (Biotek, Winooski, VT). Cells were assessed as a percentage of DMSO only treated control cells. […]
In this section we review reported IC50 values for a set of compounds.

Illustrative cases are given below, each with its answer.
> print(dat)
                              smiles.record         result
1  C=CC(=O)Nc1ccc2c(c1)c(C)cn2-c1nc(Nc2cnn(C)c2)ncc1F  0.1 to 100 nM
2  C=CC(=O)Nc1ccc2c(-c3nc(Nc4ccc(N5CCOCC5)cc4)ncc3Cl)cn(C)c2c1  0.1 to 100 nM
3  C=CC(=O)Nc1ccc2c(c1)c(C)cn2-c1nc(Nc2cnn(C3CCN(C4COC4)CC3)c2)ncc1Cl  0.1 to 100 nM

**Query** Recorded IC50 of `C=CC(=O)Nc1ccc2c(ccn2-c2nc(Nc3ccc(OCCN4CCOCC4)cc3)ncc2Cl)c1` , please.
**Result** 0.1 to 100 nM

**Query** Param item: `C=CC(=O)Nc1ccc2c(ccn2-c2nc(Nc3cccc(OCCN4CCOCC4)c3)ncc2Cl)c1C`
**Result** 250 to 1000 nM

**Query** Param item: `C=CC(=O)Nc1ccc2c(c1)c(C)cn2-c1nc(Nc2cn(C)cn2)ncc1Cl`
**Result** 0.1 to 100 nM

**Query** Param item: `C=CC(=O)Nc1ccc2c(c1)c(C)cn2-c1nc(Nc2ccc(OCCN3CCOCC3)cc2)ncc1C`
**Result** 0.1 to 100 nM

**Query** Param item: `C=CC(=O)Nc1cnc2c(c1)c(C)cn2-c1nc(Nc2ccnn2C)ncc1C`
**Result** 0.1 to 100 nM

**Query** Param item: `C=CC(=O)Nc1ccc2c(c1)c(C)cn2-c1nc(Nc2cnn(C)c2)ncc1Cl`
**Result** 0.1 to 100 nM

**Query** Param item: `C=CC(=O)Nc1ccc2c(c1)c(C)cn2-c1nc(Nc2ccc(OC)c(OC)c2)ncc1Cl`
**Result** 0.1 to 100 nM

**Query** Param item: `C=CC(=O)Nc1ccc2c(c1)c(C)cn2-c1nc(Nc2ccc(N3CCOCC3)cc2)ncc1C`
**Result** 0.1 to 100 nM

**Query** Param item: `C=CC(=O)Nc1ccc2c(c1)c(C)cn2-c1nc(Nc2cccc(OCCN3CCOCC3)c2)ncc1C`
**Result** 0.1 to 100 nM

**Query** Param item: `C=CC(=O)Nc1ccc2c(c1)c(C)cn2-c1nc(Nc2ccnn2C)ncc1Cl`
**Result** 0.1 to 100 nM

**Query** Param item: `C=CC(=O)Nc1ccc2c(c1)c(C)cn2-c1nc(Nc2ccc(N3CCOCC3)cc2)ncc1Cl`
**Result** 0.1 to 100 nM

**Query** Param item: `C=CC(=O)Nc1ccc2c(c1)c(C)cn2-c1nc(Nc2ccc(N3CCOCC3)cc2)ncc1F`
**Result** 0.1 to 100 nM

**Query** Param item: `C=CC(=O)Nc1ccc2c(c1)c(C)cn2-c1nc(Nc2cnn(C)c2C)ncc1Cl`
**Result** 0.1 to 100 nM

**Query** Param item: `C=CC(=O)Nc1ccc2c(c1)c(C)cn2-c1nc(Nc2ccn(C)n2)ncc1C`
**Result** 0.1 to 100 nM

**Query** Param item: `C=CC(=O)Nc1ccc2c(-c3ccnc(Nc4ccc(N5CCOCC5)cc4)n3)cn(C)c2c1`
**Result** 0.1 to 100 nM

**Query** Param item: `C=CC(=O)Nc1ccc2c(c1)c(C)cn2-c1nc(Nc2cc(C)nn2C)ncc1C`
**Result** 0.1 to 100 nM
